Entry source: patent US20240101584A1

# Tested on: HL-60 cells
# assay: MTT viability assay, HL-60 cells
# Assay type: cell-based
# study-conditions: Homo sapiens, HL-60; Table 13, experimental data; MTT, 48 hrs, n = 3; read-out: IC50 HL-60

{"compound": "CC(C)(C)C1CCC2(CC1)OOC1(CCC(OC(=O)NCCC[N+](C)(Cc3ccccc3)Cc3ccccc3)CC1)OO2.[I-] (stereo not shown)", "tested-target": "HL-60 cells", "IC50": "1200 nM"}

----------
# Test system: T47D cells
# assay: MTT viability assay, T47D cells
# Assay type: cell-based
# study-conditions: MTT, 48 h incubation, mean, n = 3; read-out: IC50 against T47D cells
Each entry below carries its recorded IC50.
endpoint-name: IC50 (µM)

{"compound": "CC(C)(C)C1CCC2(CC1)OOC1(CCC(OC(=O)NCCCCO[C@@H]3O[C@H](CO)[C@@H](O)[C@H](O)[C@H]3O)CC1)OO2 (some centres unmarked) [Compound 37i]", "endpoint-name": "IC50", "observed-result": 13.2}
{"compound": "O=C(CC1CCC2(CC1)OOC1(OO2)C2CC3CC(C2)CC1C3)NCCC[P+](c1ccccc1)(c1ccccc1)c1ccccc1 (centres unmarked)", "endpoint-name": "IC50", "observed-result": 4.4}

----------
# System: NIH3T3 cells
# assay: MTT viability assay, non-cancerous NIH3T3 cells
# Format: cell-based
# study-conditions: Mus musculus, NIH3T3; Table 12b; read-out: IC50 NIH3T3
pIC50: −log10 of the molar value.
endpoint-name: pIC50

{"compound": "CC(C)(C)C1CCC2(CC1)OOC1(CCC(OC(=O)N3CCNCC3)CC1)OO2 (stereo not shown) [Compound 37f]", "endpoint-name": "pIC50", "observed-result": 4.94}
{"compound": "C#CCCN(CCC[N+](C)(Cc1ccccc1)Cc1ccccc1)C(=O)OC1CCC2(CC1)OOC1(CCC(C(C)(C)C)CC1)OO2.[I-] (stereo not shown)", "endpoint-name": "pIC50", "observed-result": 4.97}
{"compound": "CCCC[N+](C)(CCCC)CCCNC(=O)OC1CCC2(CC1)OOC1(CCC(C(C)(C)C)CC1)OO2.[I-] (stereo not shown)", "endpoint-name": "pIC50", "observed-result": 4.47}
{"compound": "CCCC[P+](CCCC)(CCCC)CCCNC(=O)OC1CCC2(CC1)OOC1(CCC(C(C)(C)C)CC1)OO2.[Br-] (stereo not shown)", "endpoint-name": "pIC50", "observed-result": 4.95}

----------
# Tested on: NIH3T3 cells
# assay: MTT viability assay, non-cancerous NIH3T3 cells
# Format: cell-based
# study-conditions: Mus musculus, NIH3T3; Table 12b; read-out: IC50 NIH3T3
# Protocol: The anticancer activities of the exemplary compounds listed in Example 1 were tested against human cervix Hela cells, mammary breast cancer MDA-MB-231 cells, human hepatocellular HepG2 cells, human colorectal HCT116 cells, mammary ductal T47D cells, non-cancerous NIH3T3 cells, dog's kidney MDCK cells, and mouse brain bEnd.3 cells, respectively.
The entries below are paired with their reported IC50.

{"molecule": "CC1=CC(=O)C(C(C)(C)CC(=O)N2CCN(C(=O)OC3CCC4(CC3)OOC3(CCC(C(C)(C)C)CC3)OO4)CC2)=C(C)C1=O (stereo not drawn) [Compound 37g]", "scale-unit": "µM", "IC50": 26.6}
{"molecule": "CC(C)(C)C1CCC2(CC1)OOC1(CCC(OC(=O)NCCC[N+](C)(Cc3ccccc3)Cc3ccccc3)CC1)OO2.[I-] (stereo not drawn)", "scale-unit": "µM", "IC50": 29}
{"molecule": "CC(C)(C)C1CCC2(CC1)OOC1(CCC(OC(=O)NCCC[P+](c3ccccc3)(c3ccccc3)c3ccccc3)CC1)OO2.[Br-] (stereo not drawn) [Compound 37b]", "scale-unit": "µM", "IC50": 4.6}
